Test system: cultured human mast cells (CHMC)
Protocol Details: CHMC low cell density IgE activation: tryptase assay
Format: cell-based
Test Context: low cell density; read-out: CHMC anti-IgE Tryptase
Procedure: Pellet CHMC cells (980 rpm, 10 min) and resuspend in pre-warmed MT. Add 65 ul of cells to each 96-well plate. Depending on the degranulation activity for each particular CHMC donor, load 1000-1500 cells/well. Mix four times followed by a 1 hr incubation at 37° C. […] Stimulate cells by adding 25 ul of 6× anti-IgE solution to the appropriate plates. Add 25 ul MT to un-stimulated control wells. Mix twice following addition of the anti-IgE. Incubate at 37° C. for 30 minutes. […]
For each entry below, report its IC50 value.
Numbers only, in nM.

[[record]]
compound = "COc1ccc(Nc2nc(Nc3ccc4cn[nH]c4c3)ncc2F)cc1Cl"
unit_symbol = "nM"
number = 137

[[record]]
compound = "OCCCn1ncc2cc(Nc3ncc(F)c(Nc4ccc(Cl)cc4)n3)ccc21"
unit_symbol = "nM"
number = 146

[[record]]
compound = "Cn1ncc2ccc(Nc3ncc(F)c(Nc4ccc5c(c4)NC(=O)C(C)(C)O5)n3)cc21"
unit_symbol = "nM"
number = 37


List the reported IC50 of each compound below.
1. CNC(=O)COc1cccc(Nc2ncc(F)c(Nc3ccc(OC4CCC(N)CC4)c(Cl)c3)n2)c1 (mixture of isomers)
2. O=C(COc1cccc(Nc2ncc(F)c(Nc3ccc(N4CCOCC4)cc3)n2)c1)NC1CC1

Reply text:
1: 1700; 2: 1370

List the reported IC50 of each compound below.
1. O=C(NCC(O)CO)C1Cc2cc(Nc3ncc(F)c(Nc4ccc(OC(F)(F)F)c(Cl)c4)n3)ccc2O1 (mixture of isomers)
2. COc1ccc(Nc2nc(Nc3ccc4oc(CN(C)C)cc4c3)ncc2F)cc1Cl

Reply text:
[353, 995]

====

For each entry below, report its IC50 value.
Assayed Target: Syk kinase (Homo sapiens, UniProt P43405)
Protocol Details: Syk kinase biochemical fluorescence polarization assay
Test Context: isolated Syk kinase, fluorescence polarization, 4 uM ATP
Give bare numbers, in nM.

Use these answered entries as a reference point.
[[record]]
molecule = "Cc1ccc(Nc2nc(Nc3cccc(O)c3)ncc2F)nc1 [Compound R927017]"
readout = "IC50"
unit_symbol = "nM"
number = 2350

[[record]]
molecule = "COc1ccc(Nc2nc(Nc3ccc4cc[nH]c4c3)ncc2F)cc1Cl [Compound R926976]"
readout = "IC50"
unit_symbol = "nM"
number = 421

[[record]]
molecule = "Fc1cnc(Nc2ccc3cc[nH]c3c2)nc1Nc1ccc(Cl)c(Cl)c1 [Compound R926975]"
readout = "IC50"
unit_symbol = "nM"
number = 767

[[record]]
molecule = "CC1(C)Oc2ccc(Nc3nc(Nc4ccc5cn[nH]c5c4)ncc3F)cc2NC1=O [Compound R940363]"
readout = "IC50"
unit_symbol = "nM"
number = 6


List the reported IC50 of each molecule below.
1. C[C@@H]1Oc2ccc(Nc3ncc(F)c(Nc4ccc5c(c4)NC(=O)[C@H](C)O5)n3)cc2NC1=O [Compound R908952]
2. Cn1ncc2cc(Nc3ncc(F)c(Nc4ccc5c(c4)OCCO5)n3)ccc21 [Compound R935193]
3. CC(=O)N1CCN(c2ccc(Nc3ncc(F)c(Nc4ccc5c(n4)NC(=O)CO5)n3)cc2)CC1 [Compound R945391]

Reply text:
1: 41; 2: 110; 3: 10

List the reported IC50 of each molecule below.
1. CC1(C)Oc2ccc(Nc3nc(Nc4ccc5cc[nH]c5c4)ncc3F)cc2NC1=O [Compound R926982]
2. Cc1cccc(C)c1Nc1ncc(F)c(Nc2cccc(N)n2)n1 [Compound R927078]
3. Fc1cc(Nc2nc(Nc3ccc4cn[nH]c4c3)ncc2F)ccc1Cl [Compound R935414]
4. CC1(C)Oc2ccc(Nc3nc(Nc4ccc5c(cnn5CCCO)c4)ncc3F)cc2NC1=O [Compound R935432]

Reply text:
1: 28; 2: 222; 3: 152; 4: 50

Inquiry: I have this molecule here, CNC(=O)COc1cccc(Nc2ncc(F)c(Nc3ccc(Cl)c(OC)c3)n2)c1 [Compound R927042] , and I need its recorded IC50.
Reply text: 51
